- TESTED SYSTEM: 5-lipoxygenase (Cavia porcellus)
- Construct: The 5-LO was concentrated in a known manner from PMNs of male Dunkin-Hartley guinea-pigs; endogenous in cells; host or cells: peritoneal PMNs of male Dunkin-Hartley guinea-pigs, homogenized; 10,000 x g supernatant used as enzyme solution
- TEST: inhibitory activity on free 5-lipoxygenase concentrated from peritoneal PMNs of the guinea-pig (5-HETE formation)
- Type: biochemical
- DETAILS: 10^-5 mole/liter; guinea-pig 5-LO, 37° C.; read-out: In vitro % inhibitory activity on 5-HETE formation caused by free 5-LO
EXPERIMENTAL READOUT: inhibition at 10 µM (%)

1) Cc1ccnc(N2CCN(CCC3Cn4c(-c5ccc(O)cc5)c(C)c5c(O)ccc(c54)O3)CC2)c1 (stereo not shown)	100
2) COc1cc(-c2c(C)c3cccc4c3n2CC(CCN2CCN(c3cc(C)ccn3)CC2)O4)ccc1O (stereo not shown)	100
3) Cc1ccnc(N2CCN(CCC3Cn4c(-c5ccc(O)c(O)c5)c(C)c5cccc(c54)O3)CC2)c1 (stereo not shown)	99
4) Cc1cccnc1N1CCN(CCCC2Cn3c(-c4cc(C)c(O)c(C)c4)c(C)c4c(O)ccc(c43)O2)CC1 (stereo not shown)	100

* * *

- TESTED SYSTEM: 5-lipoxygenase (Cavia porcellus, UniProt A0A286X958)
- Construct: The 5-LO was concentrated in a known manner from PMNs of male Dunkin-Hartley guinea-pigs; endogenous in cells; host or cells: peritoneal PMNs of male Dunkin-Hartley guinea-pigs, homogenized; 10,000 x g supernatant used as enzyme solution
- Sequence (A0A286X958 1-674): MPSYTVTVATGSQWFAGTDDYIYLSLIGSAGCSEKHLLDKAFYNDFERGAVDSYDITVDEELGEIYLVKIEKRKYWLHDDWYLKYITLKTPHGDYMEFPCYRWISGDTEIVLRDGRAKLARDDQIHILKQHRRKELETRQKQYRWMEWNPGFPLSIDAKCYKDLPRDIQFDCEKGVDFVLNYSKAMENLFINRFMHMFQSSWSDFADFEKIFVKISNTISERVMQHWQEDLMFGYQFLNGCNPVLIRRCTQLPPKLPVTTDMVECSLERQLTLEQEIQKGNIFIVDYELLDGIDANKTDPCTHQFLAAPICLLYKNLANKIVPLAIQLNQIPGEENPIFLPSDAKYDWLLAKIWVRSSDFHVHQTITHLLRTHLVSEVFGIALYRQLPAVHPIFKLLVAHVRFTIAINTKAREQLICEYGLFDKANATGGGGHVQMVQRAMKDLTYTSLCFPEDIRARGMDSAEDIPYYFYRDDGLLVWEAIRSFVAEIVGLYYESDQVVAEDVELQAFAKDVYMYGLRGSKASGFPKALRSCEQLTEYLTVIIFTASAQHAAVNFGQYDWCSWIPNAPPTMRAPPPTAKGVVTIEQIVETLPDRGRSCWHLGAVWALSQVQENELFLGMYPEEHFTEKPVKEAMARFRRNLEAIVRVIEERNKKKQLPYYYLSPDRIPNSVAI
- TEST: inhibitory activity on free 5-lipoxygenase concentrated from peritoneal PMNs of the guinea-pig (5-HETE formation)
- Format: biochemical
- DETAILS: 10^-5 mole/liter; guinea-pig 5-LO, 37° C.; read-out: In vitro % inhibitory activity on 5-HETE formation caused by free 5-LO
EXPERIMENTAL READOUT: inhibition at 10 µM (%)

1. Cc1ccnc(N2CCN(C(=O)CC3Cn4c(-c5ccc(O)cc5)c(C)c5cccc(c54)O3)CC2)c1 (stereo not shown)	100
2. COc1cc(-c2c(C)c3c(O)ccc4c3n2CC(CCC(=O)N2CCN(c3ccccn3)CC2)O4)cc(C)c1O (stereo not shown)	100

1. Cc1ccnc(N2CCN(C(=O)CCCC3Cn4c(-c5cc(C)c(O)c(C)c5)c(C)c5cccc(c54)O3)CC2)c1 (stereo not shown)
2. COc1cc(-c2c(C)c3cccc4c3n2CC(CCN2CCN(c3ncccc3C)CC2)O4)ccc1O (stereo not shown)
Input pair: 1 , 2 . Output: entry with lower inhibition at 10 µM. Answer = label.
2
(2: 55%, 1: 88%)

* * *

- TESTED SYSTEM: 5-lipoxygenase (Cavia porcellus)
- Construct: The 5-LO was concentrated in a known manner from PMNs of male Dunkin-Hartley guinea-pigs; endogenous in cells; host or cells: peritoneal PMNs of male Dunkin-Hartley guinea-pigs, homogenized; 10,000 x g supernatant used as enzyme solution
- TEST: inhibitory activity on free 5-lipoxygenase concentrated from peritoneal PMNs of the guinea-pig (5-HETE formation)
- Assay type: biochemical
- DETAILS: 10^-5 mole/liter; guinea-pig 5-LO, 37° C.; read-out: In vitro % inhibitory activity on 5-HETE formation caused by free 5-LO
EXPERIMENTAL READOUT: inhibition at 10 µM (%)

1) COc1cc2c3c(c1)c(C)c(-c1cc(C)c(O)c(C)c1)n3CC(CCN1CCN(c3cc(C)ccn3)CC1)O2 (stereo not drawn)	77
2) Cc1ccnc(N2CCN(C(=O)CCC3Cn4c(-c5cc(C)c(O)c(C)c5)c(C)c5c(O)ccc(c54)O3)CC2)c1 (stereo not drawn)	100
3) COc1cc(-c2c(C)c3cccc4c3n2CC(CCC(=O)N2CCN(c3cc(C)ccn3)CC2)O4)ccc1O (stereo not drawn)	100

Value source: patent US5474988A
